tested on: UACC-62; experiment: Antiproliferative activity against human melanoma UACC62 cell line; type: functional
Under this convention, satisfied denotes GI50 strictly below 2000 nM and not satisfied denotes GI50 at or above 2000 nM.

SMILES_CODE | ASSAY_SYSTEM | CLASS_ASSIGNMENT
O=C(Oc1ccc(Cl)cc1Cl)c1ccccc1Nc1ccnc(C(F)(F)F)c1 | UACC-62 | not satisfied

Now, please, on to the next molecule.
Bench note: check whether "O=C(Oc1cccnc1)c1ccccc1Nc1ccnc(C(F)(F)F)c1" shows GI50 below 2000 nM
satisfied

----------
tested on: SW-620; assay: Antiproliferative activity against human colon SW620 cell line; assay type: functional
Category key, based on recorded GI50: c1 (below 4 µM), c2 (4 µM to below 5 µM), c3 (5 µM or more)

Worked examples follow.
SMILES_CODE | CLASS_ASSIGNMENT
O=C(Oc1cccnc1)c1ccccc1Nc1ccnc(C(F)(F)F)c1 | c1
O=C(Oc1ccccc1Cl)c1cccnc1Nc1ccnc(C(F)(F)F)c1 | c1
O=C(Oc1cccnc1)c1cccnc1Nc1ccnc(C(F)(F)F)c1 | c3
O=C(Oc1ccccc1Cl)c1ccccc1Nc1ccnc(C(F)(F)F)c1 | c1
O=C(Oc1ccc(Cl)cc1Cl)c1ccccc1Nc1ccnc(C(F)(F)F)c1 | c2

Class for "O=C(Oc1ccc(Cl)cc1)c1ccccc1Nc1ccnc(C(F)(F)F)c1" ?
c3

Which class holds "O=C(Oc1c(Cl)cc(Cl)cc1Cl)c1ccccc1Nc1ccnc(C(F)(F)F)c1" ?
c2

Kindly state the category for this molecule: "O=C(Oc1ccccc1Cl)c1ccccc1Nc1cccc(C(F)(F)F)c1"
c3

Looking at "O=C(Oc1cccc(Cl)c1)c1ccccc1Nc1ccnc(C(F)(F)F)c1" , which class would you pick?
c2
